Test: Half life in Sprague-Dawley rat at 2.8 mg/kg, iv as 30 mins infusion
Format: ADME, organism-based
Set-up: dose 2.8 mg/kg, route intravenous
Details: in vivo
Quantity: half-life (min)
Express it in min; write the number only.

### Prompt Tell me half-life reported for COC(=O)N[C@H](C(=O)N1CCCC1c1ncc(C#CC#Cc2ccc(-c3cnc(C4CCCN4C(=O)[C@@H](NC(=O)OC)C(C)C)[nH]3)cc2)[nH]1)C(C)C.Cl (single isomer, unassigned; 13a)
### Response 204

###

Assay: Solubility of the compound in water at pH 2
Assay type: physicochemical
Quantity: solubility (µM)
Express it in µM; write the number only.

### Prompt Tell me solubility reported for COC(=O)N[C@H](C(=O)N1CCCC1c1ncc(C#CC#Cc2ccc(-c3cnc(C4CCCN4C(=O)[C@@H](NC(=O)OC)C(C)C)[nH]3)cc2)[nH]1)C(C)C.Cl (single isomer, unassigned; 13a)
### Response 208

###

Assay: Half life in monkey at 3 mg/kg, po
Assay type: ADME, organism-based, Macaca mulatta
Design: dose 3 mg/kg, route oral
Conditions: rhesus monkey, in vivo
Quantity: half-life
Write the numeric value and follow it with the unit.

### Prompt Tell me half-life reported for `COC(=O)N[C@H](C(=O)N1CCC[C@H]1c1ncc(-c2ccc(-c3ccc(-c4cnc([C@@H]5CCCN5C(=O)[C@@H](NC(=O)OC)C(C)C)[nH]4)cc3)cc2)[nH]1)C(C)C`
### Response 3 h

###

Experiment: Cmax in beagle dog at 2.5 mg/kg, po
Assay type: ADME, organism-based, Canis lupus familiaris
Parameters: dose 2.5 mg/kg, route oral
Details: in vivo
Quantity: Cmax (µM)
Express it in µM; write the number only.

### Prompt Tell me Cmax reported for `COC(=O)N[C@@H](C(=O)N1CCC[C@H]1C(=O)Nc1ccc([C@H]2CC[C@@H](c3ccc(NC(=O)[C@@H]4CCCN4C(=O)[C@H](NC(=O)OC)C(C)C)cc3)N2c2ccc(C(C)(C)C)cc2)cc1)C(C)C`
### Response 0.72

###

Assay: Oral bioavailability in Sprague-Dawley rat at 2 mg/kg
Assay type: ADME, organism-based
Settings: in vivo
Quantity: bioavailability (%)
Express it in %; write the number only.

### Prompt Tell me bioavailability reported for `c1cc2oc(-c3ccc(-c4ncc([C@@H]5CCCN5)[nH]4)cc3)cc2cc1-c1cnc([C@@H]2CCCN2)[nH]1`
### Response 38

###

Test: Cmax in monkey at 5 mg/kg, po
Assay type: ADME, organism-based, Macaca mulatta
Design: dose 5 mg/kg, route oral
Conditions: rhesus monkey, in vivo
Quantity: Cmax (nM)
Express it in nM; write the number only.

### Prompt Tell me Cmax reported for `c1cc2oc(-c3ccc(-c4ncc([C@@H]5CCCN5)[nH]4)cc3)cc2cc1-c1cnc([C@@H]2CCCN2)[nH]1`
### Response 180

###

Assay: Cytotoxicity against human HuH7 cells
Assay type: cell-based, Huh-7
# key: entry, value: CC50
Express it in µM; write the number only.

Please review the following examples before continuing.
- Compound: "COC(=O)N[C@H](C(=O)N1CCCC1c1ncc(C#CC#Cc2ccc(-c3cnc(C4CCCN4C(=O)[C@@H](NC(=O)OC)C(C)C)[nH]3)cc2)[nH]1)C(C)C (single isomer, unassigned; 13i)"
  Observed Value: 34.7
- Compound: "COC(=O)N[C@H](C(=O)N1CCCC1c1ncc(C#CC#Cc2ccc(-c3cnc(C4CCCN4C(=O)[C@@H](NC(=O)OC)C(C)C)[nH]3)cc2)[nH]1)C(C)C.Cl (single isomer, unassigned; 13a)"
  Observed Value: 17.3
- Compound: "COC(=O)N[C@H](C(=O)N1CCCC1c1ncc(C#CC#Cc2ccc(-c3cnc(C4CCCN4C(=O)[C@@H](NC(=O)OC)C(C)C)[nH]3)cc2)[nH]1)C(C)C (single isomer, unassigned; 13j)"
  Observed Value: 59.7
- Compound: "COC(=O)N[C@@H](C(=O)N1CCCC1c1ncc(C#CC#Cc2ccc(-c3cnc(C4CCCN4C(=O)[C@H](NC(=O)OC)C(C)C)[nH]3)cc2)[nH]1)C(C)C (single isomer, unassigned; 13b)"
  Observed Value: 298
- Compound: "COC(=O)N[C@@H](C(=O)N1CCCC1c1ncc(C#CC#Cc2ccc(-c3cnc(C4CCCN4C(=O)[C@H](NC(=O)OC)C(C)C)[nH]3)cc2)[nH]1)C(C)C (single isomer, unassigned; 13k)"
  Observed Value: 108
- Compound: "COC(=O)N[C@H](C(=O)N1CCC[C@@H]1c1ncc(C#CC#Cc2ccc(-c3cnc([C@H]4CCCN4C(=O)[C@H](NC(=O)OC)C(C)C)[nH]3)cc2)[nH]1)C(C)C (single isomer, unassigned)"
  Observed Value: 24.7

We next turn to a different compound, shown below.
### Prompt Tell me CC50 reported for `COC(=O)N[C@H](C(=O)N1CCC[C@@H]1c1ncc(-c2ccc(C#CC#Cc3cnc([C@H]4CCCN4C(=O)[C@H](NC(=O)OC)C(C)C)[nH]3)cc2)[nH]1)C(C)C`
### Response 30.3

###

Tested on: Hepatitis C virus
Test: Antiviral activity against HCV genotype 1a
Type: functional, Hepacivirus hominis
Conditions: subtype 1a
Quantity: EC50 (pM)
Express it in pM; write the number only.

### Prompt Tell me EC50 reported for COC(=O)N[C@H](C(=O)N1CCCC1c1ncc(C#CC#Cc2ccc(-c3cnc(C4CCCN4C(=O)[C@@H](NC(=O)OC)C(C)C)[nH]3)cc2)[nH]1)C(C)C.Cl (single isomer, unassigned; 13a)
### Response 59

Reference source for all entries: ChEMBL document CHEMBL3351364
